The origin of these recorded values is patent US20180185504A1.

Measurement Target: T1, human prolactin receptor (PRLR) (human, UniProt P16471 25-622)
T1 sequence: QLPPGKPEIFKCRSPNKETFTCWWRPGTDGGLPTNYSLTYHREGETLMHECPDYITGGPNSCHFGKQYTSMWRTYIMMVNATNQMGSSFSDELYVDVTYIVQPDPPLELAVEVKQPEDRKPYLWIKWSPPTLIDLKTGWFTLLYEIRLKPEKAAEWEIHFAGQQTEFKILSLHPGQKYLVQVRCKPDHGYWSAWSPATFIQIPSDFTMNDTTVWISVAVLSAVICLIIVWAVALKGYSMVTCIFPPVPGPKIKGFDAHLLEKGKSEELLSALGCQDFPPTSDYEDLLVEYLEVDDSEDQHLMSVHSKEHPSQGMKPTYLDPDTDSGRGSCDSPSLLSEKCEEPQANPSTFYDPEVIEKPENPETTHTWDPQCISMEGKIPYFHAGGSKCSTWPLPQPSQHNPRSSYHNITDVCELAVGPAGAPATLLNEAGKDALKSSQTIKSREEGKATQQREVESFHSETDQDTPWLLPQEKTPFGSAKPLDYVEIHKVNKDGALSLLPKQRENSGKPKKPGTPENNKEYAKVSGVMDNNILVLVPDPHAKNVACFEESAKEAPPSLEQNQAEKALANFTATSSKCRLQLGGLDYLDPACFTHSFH
Test Protocol: cell-based or functional assay
Measured % Kill, MCF7/PRLR cells accompanies every entry in the list below.
Respond numerically; units are % and should not be typed.

Here's what some known entries look like.
[[record]]
binder = "H1H6782P-mc-VC-PAB-MMD (antibody, human IgG1, V domains shown, MMD conjugated through mc-VC-PAB linker; attachment residues not stated) VH: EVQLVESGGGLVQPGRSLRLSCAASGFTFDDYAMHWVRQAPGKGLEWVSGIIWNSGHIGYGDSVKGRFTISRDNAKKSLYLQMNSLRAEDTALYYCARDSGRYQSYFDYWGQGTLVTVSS VL: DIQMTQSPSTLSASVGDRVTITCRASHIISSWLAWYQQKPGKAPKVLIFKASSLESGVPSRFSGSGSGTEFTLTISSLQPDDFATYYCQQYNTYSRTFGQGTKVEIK"
parameter_measured = "% Kill, MCF7/PRLR cells"
units_label = "%"
value_observed = 90

[[record]]
binder = "H1H6958N2-SPDB-DM4 (antibody, human IgG1, V domains shown, DM4 conjugated through SPDB linker; attachment residues not stated) VH: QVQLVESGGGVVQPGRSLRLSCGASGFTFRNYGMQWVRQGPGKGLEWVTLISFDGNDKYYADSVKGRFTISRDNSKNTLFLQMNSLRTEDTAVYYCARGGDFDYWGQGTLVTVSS VL: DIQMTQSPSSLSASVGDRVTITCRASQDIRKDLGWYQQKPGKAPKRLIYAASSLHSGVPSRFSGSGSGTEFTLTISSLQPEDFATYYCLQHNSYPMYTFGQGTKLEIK"
parameter_measured = "% Kill, MCF7/PRLR cells"
units_label = "%"
value_observed = 90

[[record]]
binder = "H1H6782P-DM1 (antibody, human IgG1, V domains shown, DM1 conjugated through SMCC linker; attachment residues not stated) VH: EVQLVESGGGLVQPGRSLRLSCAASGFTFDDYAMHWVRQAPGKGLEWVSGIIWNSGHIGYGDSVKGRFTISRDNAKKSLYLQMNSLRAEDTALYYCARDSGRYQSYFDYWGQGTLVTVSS VL: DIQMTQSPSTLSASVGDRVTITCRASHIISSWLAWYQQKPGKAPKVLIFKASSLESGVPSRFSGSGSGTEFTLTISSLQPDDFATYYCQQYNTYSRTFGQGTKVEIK"
parameter_measured = "% Kill, MCF7/PRLR cells"
units_label = "%"
value_observed = 80

[[record]]
binder = "H1H6975N-DM1 (antibody, human IgG1, V domains shown, DM1 conjugated through SMCC linker; attachment residues not stated) VH: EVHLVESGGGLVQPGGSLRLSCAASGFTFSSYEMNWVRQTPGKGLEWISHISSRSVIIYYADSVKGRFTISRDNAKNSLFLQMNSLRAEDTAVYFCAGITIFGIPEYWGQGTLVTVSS VL: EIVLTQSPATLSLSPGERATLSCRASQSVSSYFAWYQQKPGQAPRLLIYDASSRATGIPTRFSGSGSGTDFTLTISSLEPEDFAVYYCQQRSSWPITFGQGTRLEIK"
parameter_measured = "% Kill, MCF7/PRLR cells"
units_label = "%"
value_observed = 80

[[record]]
binder = "H1H6765P-DM1 (antibody, human IgG1, V domains shown, DM1 conjugated through SMCC linker; attachment residues not stated) VH: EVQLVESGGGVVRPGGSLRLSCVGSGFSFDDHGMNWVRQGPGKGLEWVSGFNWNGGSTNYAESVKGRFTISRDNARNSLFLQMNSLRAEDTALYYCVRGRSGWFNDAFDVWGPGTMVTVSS VL: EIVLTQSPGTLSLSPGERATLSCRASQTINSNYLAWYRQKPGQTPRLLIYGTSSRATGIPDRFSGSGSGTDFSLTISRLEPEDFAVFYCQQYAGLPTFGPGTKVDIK"
parameter_measured = "% Kill, MCF7/PRLR cells"
units_label = "%"
value_observed = 90


QUERY: Form field: reported % Kill, MCF7/PRLR cells of H1H6975P-mc-VC-PAB-MMD (antibody, human IgG1, V domains shown, MMD conjugated through mc-VC-PAB linker; attachment residues not stated) VH: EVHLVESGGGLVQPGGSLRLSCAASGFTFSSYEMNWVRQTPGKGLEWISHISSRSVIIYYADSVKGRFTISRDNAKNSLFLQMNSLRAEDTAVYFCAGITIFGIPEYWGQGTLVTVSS VL: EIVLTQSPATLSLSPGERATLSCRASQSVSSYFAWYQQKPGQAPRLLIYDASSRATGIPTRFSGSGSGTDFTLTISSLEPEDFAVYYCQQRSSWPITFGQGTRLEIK
RESULT: 90
